Entry source: the RNAGym collection of RNA variant scans (doi:10.7554/elife.80360)

B1: HDV Ribozyme (parent)
chain: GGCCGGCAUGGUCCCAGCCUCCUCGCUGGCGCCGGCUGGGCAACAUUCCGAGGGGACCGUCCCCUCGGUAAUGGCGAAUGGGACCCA

- Variants of: B1
- ASSAY PROTOCOL: self-cleavage, relative activity (ratio to wild type); higher = more cleavage; co-transcriptional

{"CHANGES": "C84U C86G", "self-cleavage": 0.907}
{"CHANGES": "C32U C84U", "self-cleavage": 0.763}
{"CHANGES": "G25A A45G", "self-cleavage": 0.332}
{"CHANGES": "U27C G31C", "self-cleavage": 0}
{"CHANGES": "G31A C84A", "self-cleavage": 0.326}
{"CHANGES": "G28U C85G", "self-cleavage": 0.108}
{"CHANGES": "U27C C30A", "self-cleavage": 0.415}
{"CHANGES": "U46C A71U", "self-cleavage": 0.767}
{"CHANGES": "G11U C49U", "self-cleavage": 0.386}
{"CHANGES": "A16C G82C", "self-cleavage": 0.0755}
{"CHANGES": "A42G A51U", "self-cleavage": 0.464}
{"CHANGES": "C24U C57G", "self-cleavage": 0.779}
{"CHANGES": "G25A U46G", "self-cleavage": 0.262}
{"CHANGES": "U9A G38U", "self-cleavage": 0.237}
{"CHANGES": "C26G G53A", "self-cleavage": 1.02}
{"CHANGES": "A8C G81U", "self-cleavage": 0.201}
{"CHANGES": "C13A C15U", "self-cleavage": 0.185}
{"CHANGES": "U12C G74A", "self-cleavage": 0.0519}
{"CHANGES": "C41A U79G", "self-cleavage": 0.858}
{"CHANGES": "G17U C18U", "self-cleavage": 0.189}
{"CHANGES": "G29C G54U", "self-cleavage": 0.204}
{"CHANGES": "U20C U65C", "self-cleavage": 0.401}
